Entries and their pIC50
# ASSAYED_TARGET: JAK3 tyrosine kinase (Homo sapiens)
# Sequence (P52333 1-1124): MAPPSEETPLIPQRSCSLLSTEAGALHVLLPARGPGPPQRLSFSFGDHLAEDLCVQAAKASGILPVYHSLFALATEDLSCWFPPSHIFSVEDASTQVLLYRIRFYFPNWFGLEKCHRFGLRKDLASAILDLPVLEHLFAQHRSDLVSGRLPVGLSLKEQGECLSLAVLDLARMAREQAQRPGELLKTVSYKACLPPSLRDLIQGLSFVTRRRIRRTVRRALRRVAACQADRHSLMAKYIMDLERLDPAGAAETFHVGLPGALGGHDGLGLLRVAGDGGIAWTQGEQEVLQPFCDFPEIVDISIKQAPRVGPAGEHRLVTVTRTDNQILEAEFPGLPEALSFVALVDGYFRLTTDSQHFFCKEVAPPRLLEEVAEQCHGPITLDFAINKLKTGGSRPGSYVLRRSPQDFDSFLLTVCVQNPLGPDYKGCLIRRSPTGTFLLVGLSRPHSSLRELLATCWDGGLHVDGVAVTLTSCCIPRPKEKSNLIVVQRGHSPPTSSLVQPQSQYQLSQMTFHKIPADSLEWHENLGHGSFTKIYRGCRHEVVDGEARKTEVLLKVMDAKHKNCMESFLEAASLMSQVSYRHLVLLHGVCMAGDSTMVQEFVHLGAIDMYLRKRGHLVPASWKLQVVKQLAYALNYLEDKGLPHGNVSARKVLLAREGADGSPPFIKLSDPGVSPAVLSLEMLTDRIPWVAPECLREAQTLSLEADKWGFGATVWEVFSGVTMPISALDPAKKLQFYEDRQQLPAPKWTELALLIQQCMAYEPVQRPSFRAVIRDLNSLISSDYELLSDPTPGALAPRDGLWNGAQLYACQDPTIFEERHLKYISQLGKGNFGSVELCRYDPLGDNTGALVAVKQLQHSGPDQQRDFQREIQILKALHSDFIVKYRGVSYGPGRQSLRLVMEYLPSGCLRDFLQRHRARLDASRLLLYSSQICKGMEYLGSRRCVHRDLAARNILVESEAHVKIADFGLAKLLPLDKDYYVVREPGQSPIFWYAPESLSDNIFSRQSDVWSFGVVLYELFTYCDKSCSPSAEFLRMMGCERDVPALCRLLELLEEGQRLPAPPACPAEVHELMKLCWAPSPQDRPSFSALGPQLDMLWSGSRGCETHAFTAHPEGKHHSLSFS
pIC50: −log10 of the molar value. Counter-ions that a name gives are not always drawn.
RECORDED_METRIC: pIC50

compound="C[C@H](Nc1nc(Nc2cnccn2)cc(N2CCC(O)CC2)n1)c1ccc(F)cc1 [Example 71, hydrochloride]" obs_value=7.59
compound="COc1ccc(-c2cc(Nc3cnccn3)nc(N[C@@H](C)c3ccc(F)cc3)c2)cc1 [Example 119, hydrochloride]" obs_value=5.80
compound=CCNC(=O)C1CN(c2cc(Nc3cnccn3)nc(N[C@@H](C)c3ccc(F)cc3)n2)C1 obs_value=7.28
compound="COC1CN(c2cc(Nc3cnccn3)nc(N[C@@H](C)c3ccc(F)cc3)n2)C1 [Example 183, hydrochloride]" obs_value=7.23
